Just for reference, PubChem BioAssay AID2060603 is where these values come from.

System: 422866-222-R5-J1-PDC spheroid viability
assay-text: Anticancer human tumor 422866-222-R5-J1-PDC patient-derived pancreatic adenocarcinoma cell line growth inhibition [CLK]; active = viability on the fitted dose curve at most 10% of control; inactive = the rest
condition-info: second compound 1 µM; first compound 0.00949 µM; spheroids with HUVEC and MSC
Labels: 1 for active, -1 for inactive

| compound | answer-label |
| --- | --- |
| C=CC(=O)Nc1cc(Nc2nccc(-c3cn(C)c4ccccc34)n2)c(OC)cc1N(C)CCN(C)C + CNC(=O)c1ccc(Nc2nc(OC3CCCC3)c3c(-c4ccc5nc(C)oc5c4)c[nH]c3n2)c(OC)c1 | -1 |
| C=CC(=O)Nc1cc(Nc2nccc(-c3cn(C)c4ccccc34)n2)c(OC)cc1N(C)CCN(C)C + CN1CCN(c2cc(C(=O)Nc3cc4cc(-c5cnn(C)c5)ccc4cn3)ccn2)CC1 | -1 |
| CC(C)CC(NC(=O)C(Cc1ccccc1)NC(=O)c1cnccn1)B(O)O (stereo unspecified) + CN1CCN(c2cc(C(=O)Nc3cc4cc(-c5cnn(C)c5)ccc4cn3)ccn2)CC1 | 1 |
| NC(=O)C(=Cn1cnc(-c2cc(C(F)(F)F)cc(C(F)(F)F)c2)n1)c1cncnc1 + CN1CCN(c2cc(C(=O)Nc3cc4cc(-c5cnn(C)c5)ccc4cn3)ccn2)CC1 | -1 |
| CC(C)CC(NC(=O)C(Cc1ccccc1)NC(=O)c1cnccn1)B(O)O (stereo unspecified) + CNC(=O)c1ccc(Nc2nc(OC3CCCC3)c3c(-c4ccc5nc(C)oc5c4)c[nH]c3n2)c(OC)c1 | 1 |
| NC(=O)C(=Cn1cnc(-c2cc(C(F)(F)F)cc(C(F)(F)F)c2)n1)c1cncnc1 + CNC(=O)c1ccc(Nc2nc(OC3CCCC3)c3c(-c4ccc5nc(C)oc5c4)c[nH]c3n2)c(OC)c1 | -1 |

---

Reported viability, T/C by item:
System: 422866-222-R5-J1-PDC spheroid viability
assay-text: Anticancer human tumor 422866-222-R5-J1-PDC cell line growth inhibition [CLK];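 also: spheroids exposed to agents for seven days before readout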
condition-info: second compound 1 µM; first compound 10 µM; active compounds read low; spheroids with HUVEC and MSC

| compound | unit-descriptor | viability, T/C |
| --- | --- | --- |
| CC1COCCN1c1cc(C2(S(C)(=N)=O)CC2)nc(-c2ccnc3[nH]ccc23)n1 (stereo not drawn) + CN1CCN(c2cc(C(=O)Nc3cc4cc(-c5cnn(C)c5)ccc4cn3)ccn2)CC1 | % | 17.5 |
| O=c1[nH]cc(F)c(=O)[nH]1 + CNC(=O)c1ccc(Nc2nc(OC3CCCC3)c3c(-c4ccc5nc(C)oc5c4)c[nH]c3n2)c(OC)c1 | % | 44.5 |
| CC1COCCN1c1cc(C2(S(C)(=N)=O)CC2)nc(-c2ccnc3[nH]ccc23)n1 (stereo not drawn) + CNC(=O)c1ccc(Nc2nc(OC3CCCC3)c3c(-c4ccc5nc(C)oc5c4)c[nH]c3n2)c(OC)c1 | % | 52.5 |

---

Tested on: 422866-222-R5-J1-PDC spheroid viability
assay-text: Anticancer human tumor 422866-222-R5-J1-PDC cell line growth inhibition [CLK];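 also: spheroids exposed to agents for seven days before readout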
condition-info: second compound 1 µM; first compound 10 µM; active compounds read low; spheroids with HUVEC and MSC
Threshold-based label: viability, T/C under 20% gives satisfied, viability, T/C not under 20% gives not satisfied.

| compound | answer-label |
| --- | --- |
| O=c1[nH]cc(F)c(=O)[nH]1 + CN1CCN(c2cc(C(=O)Nc3cc4cc(-c5cnn(C)c5)ccc4cn3)ccn2)CC1 | not satisfied |
| CC1(C)CCC(CN2CCN(c3ccc(C(=O)NS(=O)(=O)c4ccc(NCC5CCOCC5)c([N+](=O)[O-])c4)c(Oc4cnc5[nH]ccc5c4)c3)CC2)=C(c2ccc(Cl)cc2)C1 + CN1CCN(c2cc(C(=O)Nc3cc4cc(-c5cnn(C)c5)ccc4cn3)ccn2)CC1 | satisfied |
| COC1C=CCC(C)C(C)S(=O)(=O)NC(=O)c2ccc3c(c2)N(CC2CCC21)CC1(CCCc2cc(Cl)ccc21)CO3 (stereo not given) + CN1CCN(c2cc(C(=O)Nc3cc4cc(-c5cnn(C)c5)ccc4cn3)ccn2)CC1 | not satisfied |
| CC(Nc1ccc2c(c1)OCCn1cc(N3C(=O)OCC3C(F)F)nc1-2)C(N)=O (stereo not given) + CNC(=O)c1ccc(Nc2nc(OC3CCCC3)c3c(-c4ccc5nc(C)oc5c4)c[nH]c3n2)c(OC)c1 | not satisfied |
| COc1ccc([C@@H](O)c2cc(-c3ncnc4cc(N5CCOCC5)ccc34)c(F)cc2Cl)nn1 + CNC(=O)c1ccc(Nc2nc(OC3CCCC3)c3c(-c4ccc5nc(C)oc5c4)c[nH]c3n2)c(OC)c1 | not satisfied |

---

Tested on: 422866-222-R5-J1-PDC spheroid viability
assay-text: Anticancer human tumor 422866-222-R5-J1-PDC cell line growth inhibition [CLK];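 also: spheroids exposed to agents for seven days before readout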
condition-info: second compound 0.316 µM; first compound 1 µM; active compounds read low; spheroids with HUVEC and MSC
Reported viability, T/C by item:
parameter: viability, T/C (%)

| compound | assayed-target | parameter | recorded-measurement |
| --- | --- | --- | --- |
| O=C(c1cc(Cc2n[nH]c(=O)c3ccccc23)ccc1F)N1CCN(C(=O)C2CC2)CC1 + CN1CCN(c2cc(C(=O)Nc3cc4cc(-c5cnn(C)c5)ccc4cn3)ccn2)CC1 | 422866-222-R5-J1-PDC spheroid viability | viability, T/C | 85.5 |
| C#Cc1c(F)ccc2cc(O)cc(-c3ncc4c(N5CC6CCC(C5)N6)nc(OCC56CCCN5CC(F)C6)nc4c3F)c12 (stereo not given) + CNC(=O)c1ccc(Nc2nc(OC3CCCC3)c3c(-c4ccc5nc(C)oc5c4)c[nH]c3n2)c(OC)c1 | 422866-222-R5-J1-PDC spheroid viability | viability, T/C | 41.6 |
| CC(CO)NC(=O)c1cc(-c2ccc(Cl)cc2)nn(-c2cnn(C)c2)c1=O (stereo not given) + CNC(=O)c1ccc(Nc2nc(OC3CCCC3)c3c(-c4ccc5nc(C)oc5c4)c[nH]c3n2)c(OC)c1 | 422866-222-R5-J1-PDC spheroid viability | viability, T/C | 73.5 |
| COc1ccc([C@@H](O)c2cc(-c3ncnc4cc(N5CCOCC5)ccc34)c(F)cc2Cl)nn1 + CNC(=O)c1ccc(Nc2nc(OC3CCCC3)c3c(-c4ccc5nc(C)oc5c4)c[nH]c3n2)c(OC)c1 | 422866-222-R5-J1-PDC spheroid viability | viability, T/C | 44.7 |
| CCc1c2c(nc3ccc(O)cc13)-c1cc3c(c(=O)n1C2)COC(=O)[C@]3(O)CC + CN1CCN(c2cc(C(=O)Nc3cc4cc(-c5cnn(C)c5)ccc4cn3)ccn2)CC1 | 422866-222-R5-J1-PDC spheroid viability | viability, T/C | 25.2 |

---

Tested on: 422866-222-R5-J1-PDC spheroid viability
assay-text: Anticancer human tumor 422866-222-R5-J1-PDC cell line growth inhibition [CLK];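 also: spheroids exposed to agents for seven days before readout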
condition-info: second compound 0.316 µM; first compound 0.1 µM; active compounds read low; spheroids with HUVEC and MSC
Threshold-based label: viability, T/C under 60% gives class 1, viability, T/C not under 60% gives class 0.

| compound | assayed-target | answer-label |
| --- | --- | --- |
| COC1C=CCC(C)C(C)S(=O)(=O)NC(=O)c2ccc3c(c2)N(CC2CCC21)CC1(CCCc2cc(Cl)ccc21)CO3 (stereo not given) + CNC(=O)c1ccc(Nc2nc(OC3CCCC3)c3c(-c4ccc5nc(C)oc5c4)c[nH]c3n2)c(OC)c1 | 422866-222-R5-J1-PDC spheroid viability | class 0 |
| CC1(C)CCC(CN2CCN(c3ccc(C(=O)NS(=O)(=O)c4ccc(NCC5CCOCC5)c([N+](=O)[O-])c4)c(Oc4cnc5[nH]ccc5c4)c3)CC2)=C(c2ccc(Cl)cc2)C1 + CNC(=O)c1ccc(Nc2nc(OC3CCCC3)c3c(-c4ccc5nc(C)oc5c4)c[nH]c3n2)c(OC)c1 | 422866-222-R5-J1-PDC spheroid viability | class 0 |
| CC1COCCN1c1cc(C2(S(C)(=N)=O)CC2)nc(-c2ccnc3[nH]ccc23)n1 (stereo not given) + CNC(=O)c1ccc(Nc2nc(OC3CCCC3)c3c(-c4ccc5nc(C)oc5c4)c[nH]c3n2)c(OC)c1 | 422866-222-R5-J1-PDC spheroid viability | class 0 |
| Nc1ccccc1NC(=O)c1ccc(CNC(=O)OCc2cccnc2)cc1 + CNC(=O)c1ccc(Nc2nc(OC3CCCC3)c3c(-c4ccc5nc(C)oc5c4)c[nH]c3n2)c(OC)c1 | 422866-222-R5-J1-PDC spheroid viability | class 0 |
| C=C(F)C(=O)N1CCN(c2nc(OCC3CCCN3C)nc3c2CCN(c2cccc4cccc(Cl)c24)C3)CC1CC#N (stereo not given) + CNC(=O)c1ccc(Nc2nc(OC3CCCC3)c3c(-c4ccc5nc(C)oc5c4)c[nH]c3n2)c(OC)c1 | 422866-222-R5-J1-PDC spheroid viability | class 1 |
| COc1cccc2c1C(=O)c1c(O)c3c(c(O)c1C2=O)CC(O)(C(=O)CO)CC3OC1CC(N)C(O)C(C)O1 (stereo not given) + CN1CCN(c2cc(C(=O)Nc3cc4cc(-c5cnn(C)c5)ccc4cn3)ccn2)CC1 | 422866-222-R5-J1-PDC spheroid viability | class 0 |
| CC(Nc1ccc2c(c1)OCCn1cc(N3C(=O)OCC3C(F)F)nc1-2)C(N)=O (stereo not given) + CN1CCN(c2cc(C(=O)Nc3cc4cc(-c5cnn(C)c5)ccc4cn3)ccn2)CC1 | 422866-222-R5-J1-PDC spheroid viability | class 0 |
| C=C(F)C(=O)N1CCN(c2nc(OCC3CCCN3C)nc3c2CCN(c2cccc4cccc(Cl)c24)C3)CC1CC#N (stereo not given) + CN1CCN(c2cc(C(=O)Nc3cc4cc(-c5cnn(C)c5)ccc4cn3)ccn2)CC1 | 422866-222-R5-J1-PDC spheroid viability | class 1 |
| Nc1ccn(C2OC(CO)C(O)C2(F)F)c(=O)n1 (stereo not given) + CN1CCN(c2cc(C(=O)Nc3cc4cc(-c5cnn(C)c5)ccc4cn3)ccn2)CC1 | 422866-222-R5-J1-PDC spheroid viability | class 1 |
